Entry source: the RNAGym collection of RNA variant scans (doi:10.1126/science.aae0568)

B1: tRNA (parent)
chain: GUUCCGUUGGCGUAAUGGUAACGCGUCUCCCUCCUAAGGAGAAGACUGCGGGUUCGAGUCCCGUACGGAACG

Variants of: B1
Test: yeast fitness relative to wild type (ratio to wild type); higher = fitter; tRNA-Arg(CCU), competitive growth, 37 C, YPD
Fewer inactive variants are shown than the library holds.
measured-quantity: yeast fitness
Answers are plain numbers.

Please look at the items below and tell me yeast fitness for each one, in order.
1. U2C A57U G67C
2. A14G C49A
3. A15C A65G
4. C22U C46A G67A

Result ::
[0.562, 0.694, 0.829, 0.657]
